ASSAY EXPLANATION: Toxicity liver stage against HepG2, at 10uM
Format: cell-based
Set-up: test concentration 10 uM, cell line HepG2-A16-CD81EGFP
STATED CONDITIONS: human, HepG2-A16-CD81EGFP cells; read-out: INHIBITION
ASSAY READOUT: cytotoxicity at 10 µM (%)

[[record]]
compound = "CCn1c(C)nnc1CN(C)C1CCN(Cc2ccon2)C1 (stereo not given)"
assay_readout = "cytotoxicity at 10 µM"
quantitative_result = 0.793

[[record]]
compound = "COCCNC(=O)CN1CCN(c2nc(C)cs2)CC1"
assay_readout = "cytotoxicity at 10 µM"
quantitative_result = -13.2

[[record]]
compound = "Cc1occc1C(=O)N1CCC2(CC1)CN(c1ccccn1)CCO2"
assay_readout = "cytotoxicity at 10 µM"
quantitative_result = -75.6

[[record]]
compound = "Cc1nn(C)c(C)c1CCC(=O)Nc1nnc(C2CC2)s1"
assay_readout = "cytotoxicity at 10 µM"
quantitative_result = -10.1

[[record]]
compound = "O=C(O)CC(CC(=O)N(Cc1ccsc1)C1CC1)c1cccs1 (stereo not given)"
assay_readout = "cytotoxicity at 10 µM"
quantitative_result = 7.8

[[record]]
compound = "CCNC(=O)[C@@H]1CCCN1C(=O)c1cccc(CCC(C)(C)O)c1"
assay_readout = "cytotoxicity at 10 µM"
quantitative_result = 9.91

[[record]]
compound = "CN(C)CCN1CCc2ncc(CN(C)Cc3ccco3)n2CC1"
assay_readout = "cytotoxicity at 10 µM"
quantitative_result = -6.26

[[record]]
compound = "Cc1cnc(C(=O)N(C)Cc2nc(-c3ccccn3)no2)cn1"
assay_readout = "cytotoxicity at 10 µM"
quantitative_result = 3.42

[[record]]
compound = "CC(O)CN1CCC(CN(C)CCC(=O)NC2CCCC2)CC1 (stereo not given)"
assay_readout = "cytotoxicity at 10 µM"
quantitative_result = -0.663

[[record]]
compound = "Cc1nc(C)n(CC2CCCN(Cc3ccccc3C#N)C2)n1 (stereo not given)"
assay_readout = "cytotoxicity at 10 µM"
quantitative_result = -16.4

[[record]]
compound = "COCC1COCCC12CCN(C(=O)CCc1ccccc1)CC2 (stereo not given)"
assay_readout = "cytotoxicity at 10 µM"
quantitative_result = -9.8

[[record]]
compound = "Cc1ccc(C)c2c(O)cc(CNCC(=O)N3CCCC3)nc12"
assay_readout = "cytotoxicity at 10 µM"
quantitative_result = -12.4

[[record]]
compound = "CN1CCN(C(=O)N2CCCC(c3nccn3CC3CCC3)C2)CC1 (stereo not given)"
assay_readout = "cytotoxicity at 10 µM"
quantitative_result = 6.64

[[record]]
compound = "COc1c(C)cnc(CN2CCn3c(nnc3C3CC3)C2)c1C"
assay_readout = "cytotoxicity at 10 µM"
quantitative_result = -4.94

[[record]]
compound = "O=C(NCC1CC1)C1CCC2(CCN(C(=O)c3ccoc3)CC2)O1 (stereo not given)"
assay_readout = "cytotoxicity at 10 µM"
quantitative_result = 4.97

[[record]]
compound = "O=C(O)CSc1nnc(-c2ccco2)n1-c1ccccc1C(F)(F)F"
assay_readout = "cytotoxicity at 10 µM"
quantitative_result = 3.41

[[record]]
compound = "N#Cc1cccnc1OC1CCN(S(=O)(=O)c2ccc(F)c(Cl)c2)CC1"
assay_readout = "cytotoxicity at 10 µM"
quantitative_result = 6.27

[[record]]
compound = "Cn1nc(C(=O)NC2CCCCC2)cc1NC(=O)C1CC1"
assay_readout = "cytotoxicity at 10 µM"
quantitative_result = -3.97

[[record]]
compound = "CCCc1cc(=O)[nH]c(-c2cccc(CN3CCCCCC3)c2)n1"
assay_readout = "cytotoxicity at 10 µM"
quantitative_result = -4.09

[[record]]
compound = "Cc1nc(C(=O)NCc2ccc(N3CCNC(=O)C3)c(F)c2)cs1"
assay_readout = "cytotoxicity at 10 µM"
quantitative_result = -0.0162

[[record]]
compound = "COc1ccccc1OCC(=O)NS(=O)(=O)c1ccc(Cl)cc1F"
assay_readout = "cytotoxicity at 10 µM"
quantitative_result = 2.28

[[record]]
compound = "CCn1c(Cn2cncn2)nnc1C1CCN(Cc2ccc(C)o2)CC1"
assay_readout = "cytotoxicity at 10 µM"
quantitative_result = -12.9

[[record]]
compound = "COc1cccc(C2CC(=O)Nc3c2cnn3C(C)(C)C)c1 (stereo not given)"
assay_readout = "cytotoxicity at 10 µM"
quantitative_result = -8.54

[[record]]
compound = "Cc1cc(C(F)(F)F)nn1CCNC(=O)C(C)n1ccnc1C(C)C (stereo not given)"
assay_readout = "cytotoxicity at 10 µM"
quantitative_result = -5.24

[[record]]
compound = "CCNC(=O)[C@@H]1C[C@H](NC(=O)c2ccccc2C#N)CN1CCCSC"
assay_readout = "cytotoxicity at 10 µM"
quantitative_result = -12.7

[[record]]
compound = "COc1nc2c(cc1C(=O)NCc1noc(-c3ccco3)n1)CCC2"
assay_readout = "cytotoxicity at 10 µM"
quantitative_result = -6.04

[[record]]
compound = "CCOc1ccc([C@@H]2N[C@H](c3nccs3)Cc3ccsc32)cc1OC"
assay_readout = "cytotoxicity at 10 µM"
quantitative_result = 38

[[record]]
compound = "OCC1(Cc2ccc(Cl)cc2)CCN(Cc2ccccc2O)CC1"
assay_readout = "cytotoxicity at 10 µM"
quantitative_result = -137

[[record]]
compound = "CCc1ccc(CN(C)C(=O)C2CC(=O)N(c3cccc(O)c3)C2)nc1 (stereo not given)"
assay_readout = "cytotoxicity at 10 µM"
quantitative_result = -3.57

[[record]]
compound = "Cc1cccc(NC2CCN(C(=O)Nc3cn[nH]c3)CC2)n1"
assay_readout = "cytotoxicity at 10 µM"
quantitative_result = -26.7

[[record]]
compound = "Cc1csc(N2CCN(C(=O)NCCNc3ncccn3)CC2)n1"
assay_readout = "cytotoxicity at 10 µM"
quantitative_result = -18.8

[[record]]
compound = "CCCn1cc(NC(=O)NCC2CCS(=O)(=O)C2)nn1 (stereo not given)"
assay_readout = "cytotoxicity at 10 µM"
quantitative_result = 0.186

[[record]]
compound = "Cc1cnn(CC2CCCN2C(=O)c2ccc(F)c(F)c2)c1 (stereo not given)"
assay_readout = "cytotoxicity at 10 µM"
quantitative_result = -7.68

[[record]]
compound = "Cc1nc(N)sc1C(=O)N1CCCC(COc2ccc(F)cc2)C1 (stereo not given)"
assay_readout = "cytotoxicity at 10 µM"
quantitative_result = -143

[[record]]
compound = "CC(=O)NS(=O)(=O)c1ccc2c(c1)N(C)CCC2"
assay_readout = "cytotoxicity at 10 µM"
quantitative_result = -0.89

